target.under.test: CaCyk3
procedure.text: SPOT peptide array binding signal intensity (averaged, normalized) (arbitrary units (background-subtracted, floor 0; scale differs between SH3 domains)); higher = stronger binding of the SH3 domain to the peptide
// label = met if SPOT peptide array binding signal intensity is not less than 20, otherwise not met

> print(dat)
             binder  assigned.category
 1  PLQSKIPMLPSRRTM            not met
 2  IHTRRPSSTSQYLIR            not met
 3  QPQRTAPKPPISAPR            not met
 4  AERNYAPRLPRRETS            not met
 5  RRLRDKYKLPIVDAD            not met
 6  HKVLRPFLLRRLKKD            not met
 7  LPPPPPPPPPPPLPQ            not met
 8  VDFTLPPPPPPPGLD            not met
 9  SSTPTTPERPKRKSG                met
10  RKLRTVPGVPLIHLT            not met
11  TKFRISLGLPVGAIM                met
12  KTKQQKPAIPQKKSF            not met
13  LTRRFPFLFPFDTRM            not met
14  QTREPNEPPPPSPAM            not met
15  FLIKFTPKFPQSIDH                met
16  RRRDFGAPANKRPRR            not met
17  NFFRKKLGIPRKLKR            not met
18  GKKVRPLLVLLLSRA            not met
19  KKEKKPPKIPKKVYT            not met
20  PIVPSSPAPPLPLSG            not met
21  PKMLPIPSKPTLFDL            not met
22  SSAAPPPPPRRATPE            not met
23  GRLRPKRIAPWHLIQ                met

Value source: the supplement of paper PMC4466140
